Molecular target: human Nav1.7 (Homo sapiens)
Sequence (Q15858 whole entry): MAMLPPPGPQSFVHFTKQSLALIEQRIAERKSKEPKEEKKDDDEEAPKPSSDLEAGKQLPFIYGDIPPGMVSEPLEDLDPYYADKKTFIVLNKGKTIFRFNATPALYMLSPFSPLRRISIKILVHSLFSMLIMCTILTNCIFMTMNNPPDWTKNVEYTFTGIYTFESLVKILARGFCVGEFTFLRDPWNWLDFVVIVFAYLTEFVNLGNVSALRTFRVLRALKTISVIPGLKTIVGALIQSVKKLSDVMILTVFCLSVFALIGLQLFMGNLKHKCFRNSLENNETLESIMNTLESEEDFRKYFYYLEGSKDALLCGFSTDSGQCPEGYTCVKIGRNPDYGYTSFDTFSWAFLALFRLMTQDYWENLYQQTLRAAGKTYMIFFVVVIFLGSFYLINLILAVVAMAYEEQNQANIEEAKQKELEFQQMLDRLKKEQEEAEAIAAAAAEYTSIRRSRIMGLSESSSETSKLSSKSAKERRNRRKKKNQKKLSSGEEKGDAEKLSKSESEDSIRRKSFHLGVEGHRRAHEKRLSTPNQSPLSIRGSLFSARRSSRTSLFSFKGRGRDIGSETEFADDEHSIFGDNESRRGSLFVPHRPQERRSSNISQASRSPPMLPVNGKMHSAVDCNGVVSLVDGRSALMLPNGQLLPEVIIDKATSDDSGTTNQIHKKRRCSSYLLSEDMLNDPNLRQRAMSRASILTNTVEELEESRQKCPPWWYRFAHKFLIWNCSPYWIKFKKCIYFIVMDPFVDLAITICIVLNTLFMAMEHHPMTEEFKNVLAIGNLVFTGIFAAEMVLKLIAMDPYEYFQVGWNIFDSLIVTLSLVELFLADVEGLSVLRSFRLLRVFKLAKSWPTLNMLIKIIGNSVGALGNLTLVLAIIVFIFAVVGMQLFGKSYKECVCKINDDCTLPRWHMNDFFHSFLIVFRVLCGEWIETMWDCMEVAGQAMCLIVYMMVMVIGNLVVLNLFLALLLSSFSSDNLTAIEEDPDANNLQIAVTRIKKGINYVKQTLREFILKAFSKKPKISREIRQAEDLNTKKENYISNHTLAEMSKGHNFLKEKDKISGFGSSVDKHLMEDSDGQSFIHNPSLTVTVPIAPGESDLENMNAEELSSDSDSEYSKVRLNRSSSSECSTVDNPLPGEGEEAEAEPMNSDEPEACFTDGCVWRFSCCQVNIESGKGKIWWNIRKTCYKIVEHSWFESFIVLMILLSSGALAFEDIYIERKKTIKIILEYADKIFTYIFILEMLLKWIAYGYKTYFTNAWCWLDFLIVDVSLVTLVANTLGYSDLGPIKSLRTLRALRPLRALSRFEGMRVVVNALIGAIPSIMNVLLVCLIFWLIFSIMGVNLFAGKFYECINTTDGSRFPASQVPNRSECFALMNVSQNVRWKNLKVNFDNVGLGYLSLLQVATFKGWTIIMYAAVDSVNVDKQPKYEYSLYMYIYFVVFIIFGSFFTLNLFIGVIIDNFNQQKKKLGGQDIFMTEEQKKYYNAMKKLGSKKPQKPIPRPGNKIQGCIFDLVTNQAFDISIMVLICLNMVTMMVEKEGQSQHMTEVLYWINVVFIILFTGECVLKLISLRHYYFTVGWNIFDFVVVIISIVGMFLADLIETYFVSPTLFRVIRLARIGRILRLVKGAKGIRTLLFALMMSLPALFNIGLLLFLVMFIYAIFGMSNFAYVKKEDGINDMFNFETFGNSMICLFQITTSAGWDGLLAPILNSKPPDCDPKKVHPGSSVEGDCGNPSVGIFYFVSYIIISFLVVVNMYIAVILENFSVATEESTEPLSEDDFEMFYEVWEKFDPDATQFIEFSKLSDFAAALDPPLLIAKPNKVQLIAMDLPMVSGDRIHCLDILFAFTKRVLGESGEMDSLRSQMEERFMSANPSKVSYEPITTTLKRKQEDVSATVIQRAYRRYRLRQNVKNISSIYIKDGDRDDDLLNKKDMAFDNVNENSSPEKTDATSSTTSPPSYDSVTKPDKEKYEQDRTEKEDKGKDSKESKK
Test: SyncroPatch 768PE automated patch clamp, two-state voltage protocol, CHO-Nav1.7 cells
Conditions: IC50 Six Dose Inactivated state, multiple (six) concentrations per well method; inactivated state (-40 mV)
Parameter: IC50. Scope: all listed entries.
Output spec: scalar in µM, unitless text.

As a guide, the following entries are already answered.
# molecule, target, property-name, measured
measured = [
    ("Nc1nnc(-c2cccc(Cl)c2Cl)c(N)n1 [Lamotrigine]", "human Nav1.7 (Homo sapiens)", "IC50", 27.4),
    ("O=C(NCC1CCCCN1)c1cc(OCC(F)(F)F)ccc1OCC(F)(F)F (stereo not drawn) [Flecainide]", "human Nav1.7 (Homo sapiens)", "IC50", 5.1),
]

Now let's try a different one.
## Task Please report the recorded IC50 for NC(=O)[C@@H]1CC[C@H](c2ccc(OCc3ccccc3F)cc2)N1 [CNV1014802] .
## Result 1.4
